B1: Osa-1-4 twister ribozyme (parent)
chain: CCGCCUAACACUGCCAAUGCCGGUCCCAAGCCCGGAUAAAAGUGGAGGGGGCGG

- Variants of: B1
- protocolDetails: self-cleavage, relative activity (ratio to wild type); higher = more cleavage; co-transcriptional
measuredParameter: self-cleavage
// keep it numeric: no unit symbol after the value

Solved entries:
C14G C31U    0.05
G48U U43G    0.04
A41C C52G    1.04
G23C G53A    0.04
G22U U43G    0.08

Value of measured self-cleavage for the entry A7C C21G : 0.01

Looking up C25A G49C , I see its self-cleavage listed as 0.04

In plain terms, C26U G47U has a documented self-cleavage of 0.06
